Item-by-item account of binding signal
Target: MaxL homodimer (Homo sapiens, UniProt P61244 1-160)
Sequence (P61244 whole entry): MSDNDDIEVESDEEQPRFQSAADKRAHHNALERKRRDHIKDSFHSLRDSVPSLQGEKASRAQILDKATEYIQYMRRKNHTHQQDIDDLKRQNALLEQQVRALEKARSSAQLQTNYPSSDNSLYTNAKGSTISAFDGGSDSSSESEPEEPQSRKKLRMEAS
Experiment: universal protein-binding microarray (PBM); PBS-based mixture, 10 nM His-tagged protein dimer, 2% milk, 200 ng/uL BSA, 50 ng/uL salmon testes DNA, 0.02% TX-100; detection with Alexa 488 anti-His antibody;; high values mean tight binding;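 further: fluorescence intensity normalized to that of the highest-ranked 8-mer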
Conditions: protein: recombinant; tags: C-terminal His-tag (pET21a); chain copies: 2; dsDNA, one strand shown
Over roughly 33,000 sequences, “normalized occupancy” has its median near 0.075; the highest 2% begin near 0.095. Only a selection was taken, and the highest values are over-represented in it overall.

// worked examples, binding signal included
# seq, binding signal
rows = [
    ("CGTGGTAG", "0.089 normalized occupancy"),
    ("CATGGTCA", "0.0991 normalized occupancy"),
    ("GATGCCCC", "0.0764 normalized occupancy"),
]

Look at this sequence and give its reported binding signal. `AGTGTTAC` 0.0737 normalized occupancy

Any idea what its binding signal is? The sequence is `ACGGCATC` 0.0761 normalized occupancy

Fill in: binding signal of `CACCCGTA` is ___ 0.0782 normalized occupancy

Consider the sequence `GTGCATCA` and give its measured binding signal. 0.0868 normalized occupancy

Which binding signal reading was recorded for the sequence `CATGCCCG` ? 0.0842 normalized occupancy

Fill blank: measured binding signal of the sequence `AGTGTATC` is ____. 0.0882 normalized occupancy

Look at this sequence and give its reported binding signal. `ACGGCATG` 0.103 normalized occupancy

Given the entry `CCATAGGA` , report its measured binding signal. 0.0736 normalized occupancy

---

Molecular target: MaxL homodimer (Homo sapiens, UniProt P61244 1-160)
Assay: universal protein-binding microarray (PBM); PBS-based mixture, 10 nM His-tagged protein dimer, 2% milk, 200 ng/uL BSA, 50 ng/uL salmon testes DNA, 0.02% TX-100; detection with Alexa 488 anti-His antibody;; high values mean tight binding;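 further: fluorescence intensity normalized to that of the highest-ranked 8-mer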
Conditions: protein: recombinant; tags: C-terminal His-tag (pET21a); chain copies: 2; dsDNA, one strand shown
In all, about 33,000 sequences were measured (“normalized occupancy”: median about 0.075, highest 2% from about 0.095 on). For the sample, the highest values were picked, then their nearest neighbours and some sequences at random.
readout.type: binding signal (normalized occupancy)
The reply should be a number in normalized occupancy, with the unit left off.

# annotated cases, reported binding signal shown
# seq, binding signal / normalized occupancy
data = [
    ("GAATGTAC", 0.0769),
    ("CTATGGGA", 0.0764),
    ("ATATGATC", 0.0857),
    ("CATGCCCA", 0.0953),
    ("CTATGGCA", 0.0779),
]

Suppose we examine the sequence `ATATGGCA` ; what binding signal value has been reported? 0.098

Field request: binding signal | item: `ACATGTAC` 0.0958

Entry under review: `CCATGTAC` . Reported binding signal? 0.086

Look up binding signal for this sequence: `GTATGGGA` 0.0804

Could you tell me which binding signal is on file for `AATGCCCC` ? 0.0836

Entry `GCATGTAC` has what binding signal? 0.0973

---

Target: MaxL homodimer (Homo sapiens, UniProt P61244 1-160)
Assay: universal protein-binding microarray (PBM); PBS-based mixture, 10 nM His-tagged protein dimer, 2% milk, 200 ng/uL BSA, 50 ng/uL salmon testes DNA, 0.02% TX-100; detection with Alexa 488 anti-His antibody;; high values mean tight binding;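 further: fluorescence intensity normalized to that of the highest-ranked 8-mer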
Conditions: protein: recombinant; tags: C-terminal His-tag (pET21a); chain copies: 2; dsDNA, one strand shown
Whole data set: some 33,000 sequences, median “normalized occupancy” near 0.075, cut for the highest 2% near 0.095. What follows is part of a selection rich in the highest values, with near analogues and random picks from the rest.
We begin with a simple list: items and their reported binding signal.
Just the number please, in normalized occupancy, no unit attached.

# seq, reported.value
data = [
    ("AAACCCAA", 0.0746),
    ("CCTACAGG", 0.0722),
    ("CTTTACCA", 0.0764),
    ("CTTCGTGC", 0.0757),
]

What value of binding signal has been recorded for this entry: `CATTAAGA` 0.0765

Given `GCCTCTCC` , state its recorded binding signal. 0.076

May I ask what binding signal has been recorded for `ATGGCTCA` ? 0.0798

Which binding signal reading was recorded for the sequence `CGCCAACA` ? 0.0741

Record request: binding signal value, item `CTTGAGTC` 0.0726

Name the reported binding signal value associated with the sequence `AGGTGATG` 0.0834

Requested read-out: binding signal. Entry: `CGTCACTC` 0.074

Reference source: paper PMC4242493
